These measurements were taken from ChEMBL document CHEMBL1146637.

System: Staphylococcus aureus
Assay Comment: In vitro antibacterial activity against oxazolidinone Linezolid resistant Staphylococcus aureus (Sau3LZD) was determined
Assay type: functional
Response field label: string, one of TRUE (MIC strictly below 0.5 µg/mL) or FALSE.

Given CC(=O)NC[C@H]1CN(c2ccc(OC3CCN(c4nc5c(cc4F)c(=O)c(C(=O)O)cn5C4CC4)CC3)c(F)c2)C(=O)O1 , is recorded MIC strictly lower than 0.5 µg/mL? FALSE

Given CC(=O)NC[C@H]1CN(c2ccc(OCC3CCN(c4nc5c(cc4F)c(=O)c(C(=O)O)cn5C4CC4)CC3)c(F)c2)C(=O)O1 , is recorded MIC strictly lower than 0.5 µg/mL? FALSE

Given CC(=O)NC[C@H]1CN(c2ccc(N[C@@H]3CCN(c4nc5c(cc4F)c(=O)c(C(=O)O)cn5C4CC4)C3)c(F)c2)C(=O)O1 , is recorded MIC strictly lower than 0.5 µg/mL? TRUE

Given CC(=O)NC[C@H]1CN(c2ccc(O[C@H]3CCN(c4nc5c(cc4F)c(=O)c(C(=O)O)cn5C4CC4)C3)c(F)c2)C(=O)O1 , is recorded MIC strictly lower than 0.5 µg/mL? TRUE

Given CC(=O)NC[C@H]1CN(c2ccc(N3CCOCC3)c(F)c2)C(=O)O1 [LINEZOLID] , is recorded MIC strictly lower than 0.5 µg/mL? FALSE

Given CC(=O)NC[C@H]1CN(c2ccc(OC[C@@H]3CCN(c4nc5c(cc4F)c(=O)c(C(=O)O)cn5C4CC4)C3)c(F)c2)C(=O)O1 , is recorded MIC strictly lower than 0.5 µg/mL? TRUE

Given CC(=O)NC[C@H]1CN(c2ccc(N3CCN(c4nc5c(cc4F)c(=O)c(C(=O)O)cn5C4CC4)CC3)c(F)c2)C(=O)O1 , is recorded MIC strictly lower than 0.5 µg/mL? FALSE

Given CC(=O)NC[C@H]1CN(c2ccc(OCC3CCN(c4nc5c(cc4F)c(=O)c(C(=O)O)cn5C4CC4)C3)c(F)c2)C(=O)O1 (stereo partly specified) , is recorded MIC strictly lower than 0.5 µg/mL? TRUE

Given CC(=O)NC[C@H]1CN(c2ccc(OC[C@H]3CCN(c4nc5c(cc4F)c(=O)c(C(=O)O)cn5C4CC4)C3)c(F)c2)C(=O)O1 , is recorded MIC strictly lower than 0.5 µg/mL? TRUE

Given CC(=O)NC[C@H]1CN(c2ccc(OCCC3CCN(c4nc5c(cc4F)c(=O)c(C(=O)O)cn5C4CC4)CC3)c(F)c2)C(=O)O1 , is recorded MIC strictly lower than 0.5 µg/mL? FALSE

Given CC(=O)NC[C@H]1CN(c2ccc(OC3CCCN(c4nc5c(cc4F)c(=O)c(C(=O)O)cn5C4CC4)C3)c(F)c2)C(=O)O1 (stereo partly specified) , is recorded MIC strictly lower than 0.5 µg/mL? FALSE

Given CC(=O)NC[C@H]1CN(c2ccc(OCCC3CCN(c4nc5c(cc4F)c(=O)c(C(=O)O)cn5C4CC4)C3)c(F)c2)C(=O)O1 (stereo partly specified) , is recorded MIC strictly lower than 0.5 µg/mL? TRUE

Given CC(=O)NC[C@H]1CN(c2ccc(OC3CN(c4nc5c(cc4F)c(=O)c(C(=O)O)cn5C4CC4)C3)c(F)c2)C(=O)O1 , is recorded MIC strictly lower than 0.5 µg/mL? TRUE
